composite z-score values for the compounds below.
target: Pro-neuregulin-1, membrane-bound isoform (Homo sapiens) (UniProt Q02297); assay: NRG1 binders on small-molecule microarrays, primary screen, psychiatric disease protein project, biochemical, small-molecule microarray, fluorescence 635/667 (AID 1075); settings: NRG1 binding, 635 nm fluorescence, higher = more signal;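 further: score combines 667 nm spot fluorescence with signal to noise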
Sequence (Q02297 whole entry, looked up, canonical isoform): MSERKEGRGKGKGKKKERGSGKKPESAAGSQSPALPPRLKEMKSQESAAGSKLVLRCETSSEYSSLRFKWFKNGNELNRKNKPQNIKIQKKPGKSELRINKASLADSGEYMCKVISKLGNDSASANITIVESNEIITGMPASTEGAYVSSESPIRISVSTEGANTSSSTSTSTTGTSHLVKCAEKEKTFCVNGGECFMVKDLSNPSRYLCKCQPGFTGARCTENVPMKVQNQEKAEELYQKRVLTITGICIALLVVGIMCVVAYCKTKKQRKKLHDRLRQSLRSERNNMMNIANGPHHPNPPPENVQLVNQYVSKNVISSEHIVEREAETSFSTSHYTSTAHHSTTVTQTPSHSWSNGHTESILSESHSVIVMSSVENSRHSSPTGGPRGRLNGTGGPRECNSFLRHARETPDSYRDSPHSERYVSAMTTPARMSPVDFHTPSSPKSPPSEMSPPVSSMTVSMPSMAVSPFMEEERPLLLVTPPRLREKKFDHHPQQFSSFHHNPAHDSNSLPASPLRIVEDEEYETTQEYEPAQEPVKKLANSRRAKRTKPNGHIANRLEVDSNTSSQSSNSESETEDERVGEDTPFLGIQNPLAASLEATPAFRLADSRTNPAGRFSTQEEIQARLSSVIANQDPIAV
Kindly provide the number alone.

Check out these entries, answers already filled in.
- Compound: "O=C1C2=CC[C@H]3C(=O)N(Cc4ccc5c(c4)OCO5)C(=O)[C@H]3[C@H]2[C@H](O)[C@@H]2O[C@H]12"
  composite z-score: -0.149
- Compound: "N#Cc1ccc(NN2C(C(O)c3cc(C(F)(F)F)cc(C(F)(F)F)c3)C=CC3C(=O)N(c4ccccc4)C(=O)C32)cc1 (centres undefined)"
  composite z-score: 1.97
- Compound: "O=C1[C@H]2[C@H]3[C@H](O)[C@H](O)CC(=NO[C@@H]4O[C@H](CO)[C@@H](O)[C@H](O)[C@H]4O)[C@H]3CC[C@H]2C(=O)N1Cc1ccccc1"
  composite z-score: -0.328
- Compound: "CCCNC(=O)OC[C@H]1O[C@H](CCON=CC[C@@H]2C=C[C@H](OC(C)=O)[C@@H](COC(C)=O)O2)C=C[C@@H]1Oc1ccc(OC)cc1"
  composite z-score: -0.367
- Compound: "CC(C)=CCCC(C)=CCON=C1C[C@@H](O)[C@@H](O)[C@@H]2[C@@H]3C(=O)N(C[C@@H]4CCCO4)C(=O)[C@@H]3CC[C@@H]12"
  composite z-score: 0.614
- Compound: "CCCNC(=O)OC[C@H]1O[C@H](CCON=C2[C@H]3CCn4c(=O)n(-c5ccccc5)c(=O)n4[C@H]3[C@H](O)[C@@H]3O[C@H]23)C=C[C@@H]1Oc1ccc(OC)cc1"
  composite z-score: -0.248

For reference, reported composite z-score for `CCCNC(=O)[C@@H]1c2ccccc2C(=O)N(c2ccc(C)cn2)[C@H]1c1ccc(CO)cc1` stands at -0.465

For reference, reported composite z-score for `CC(=O)OC[C@H]1O[C@H](C#CCCCc2ccccc2)C=C[C@@H]1OC(C)=O` stands at 0.505

For reference, reported composite z-score for `C=CC[C@@H]1C=C[C@H](ON=C2c3cc(OC)ccc3O[C@H](c3cccc(OC)c3)[C@H]2O)[C@@H](CO)O1` stands at 0.0499

###

z-score values for the compounds below.
test: yeast growth modulation, basal conditions, primary screen, YJM789 clinical isolate, OD600, 24 h (AID 1089);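 further: growth of clinical yeast isolate S. cerevisiae YJM 789 seeded 1000 cells per well; test concentration not given here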; settings: S. cerevisiae YJM789 growth, higher = more signal, called active from +8 up or from −8 down
Activity calls are given as the source filed them.

- Compound: "CC(=O)OC[C@H]1O[C@H](CCON=C(C)CCN2CCc3nc(-c4ccccc4)c(-c4ccccc4)cc3C2)C=C[C@@H]1OC(C)=O"
  z-score: "-1.92 (inactive)"
- Compound: "COC(=O)[C@@H]1CCCN1C(=O)[C@@H](C)CO"
  z-score: "-1.12 (inactive)"
- Compound: "Cc1ccc(C2CC=C(C(=O)O)CN2S(=O)(=O)c2ccc(C)cc2)cc1 (stereo unspecified)"
  z-score: "0.0388 (inactive)"
- Compound: "C=CC[C@@H]1C=C[C@H](ON=C(C)CCN2CCc3nc(CC)c(CC)cc3C2)[C@@H](CO)O1"
  z-score: "-1.12 (inactive)"
- Compound: "COC(=O)[C@@]1(Cc2ccc(F)cc2)[C@@H]2C(=CC(=O)[C@H]2CC(=O)C(=O)N(C)C)CN1C(=O)c1ccccc1"
  z-score: "1 (inactive)"
- Compound: "Cc1ccc(S(=O)(=O)N[C@@H]2COC(=O)[C@H](C)COC(=O)CC=C[C@H]2C)cc1"
  z-score: "1.4 (inactive)"
- Compound: "CCOC(=O)CCN1C(=O)[C@H]2[C@H]3[C@H](O)[C@H](O)CC(=O)[C@H]3CC[C@H]2C1=O"
  z-score: "0.184 (inactive)"
- Compound: "COc1ccc([Si](C)(C)[C@@H]2[C@@H](CC(=O)N3CCC[C@H]3CO)O[C@]3(C(=O)N(Cc4cccc(N5CCC5=O)c4)c4ccccc43)[C@H]2C)cc1"
  z-score: "-0.569 (inactive)"

For reference, reported z-score for `O=C1O[C@@H](c2ccccc2)[C@@H](c2ccccc2)N2[C@@H](c3ccc(OCCO)cc3)[C@]3(C(=O)Nc4ccc(C#CCCO)cc43)[C@@H](C(=O)N3CCCCCCC3)[C@H]12` stands at 1.15 (inactive)

For reference, reported z-score for COc1ccc(O[C@H]2C=C[C@@H](c3ccccc3)O[C@@H]2COC(=O)CCC(C)=NOC(C)CN2CCCCc3nc(C)c(C)cc32)cc1 (stereo partly specified) stands at -0.258 (inactive)

For reference, reported z-score for `COc1ccc(O[C@@H]2[C@H](O)CO[C@H]2C=CC#Cc2ccccc2)cc1` stands at 0.937 (inactive)

For reference, reported z-score for `CC(C)C[C@@H]1NC(=O)[C@H]2C[C@@H](C(=O)O)[C@@H](c3ccc(O)cc3)N2C1=O` stands at 0.634 (inactive)

For reference, reported z-score for `CO[C@H]1COC(=O)[C@@H]2CCCN2C(=O)CC=C[C@@H](C)[C@H](OC)COC(=O)CC=C[C@@H]1C` stands at -1.94 (inactive)

For reference, reported z-score for `CO[C@@H]1COC(=O)CC=C[C@@H](C)[C@@H]2C=C[C@H](O)[C@@H](COC(=O)CCC[C@H]1C)O2` stands at -0.199 (inactive)

For reference, reported z-score for `CCCC=C(CCC)[C@@H](NC(=O)c1ccc(-c2ccccc2)cc1)c1ccc(C(=O)OC)cc1` stands at 0.806 (inactive)

For reference, reported z-score for `CC(C)[C@@H](OCc1ccccc1)[C@H](C)C=NOC[C@@H](C)[C@H](OCc1ccccc1)C(C)C` stands at 0.0268 (inactive)
